Data origin, for the record: PubChem BioAssay (NCI)

Assignment: determine reported TGI for the given compounds.
System: KM12 colon
Experiment Summary: NCI tumour cell line growth inhibition, 48 h

As a guide, the following entries are already answered.
CCOC(=O)/C=C/c1ccc([N+](=O)[O-])o1 | 27.6 µM
C/C(=N\Nc1nc2cc(F)ccc2s1)c1ccccn1 | > 23.4 µM
CC(C)=CCNc1ncnc2c1ncn2CCC(=O)O | > 100 µM
N/C(=N\N=C/c1c(O)cc(O)cc1O)NO | > 100 µM
CCCC(=O)Nc1cc(/C=C/C(=O)N2C[C@@H]3C[C@]34C2=CC(=O)c2[nH]cc(C)c24)n(C)c1 | 2.6 µM

Could I get TGI for every one of these entries?
1. Nc1ccnc2c1ncn2[C@H]1C[C@H](O)[C@@H](CO)O1
2. CC(=O)N1CCOC12N=NC(C)(C)O2 (stereo unspecified)
3. CC(=O)OC1C2CCC3CC2C2(SCCS2)C31 (stereo unspecified)
4. O=C1CC(c2cccc([N+](=O)[O-])c2)C2(C(=O)NC(=S)NC2=O)C(c2cccc([N+](=O)[O-])c2)C1 (stereo unspecified)
5. O=C(CCC(NC(=O)OCc1ccccc1)C(=O)OCc1ccccc1)Nc1cccc(OCc2ccccc2)c1 (stereo unspecified)

Given back:
["> 100 µM", "> 100 µM", "> 100 µM", "> 100 µM", "> 100 µM"]

Asked: I am curious: what TGI value has been reported for O=C(O)CCN1C(=S)CSC1=S ?
Given back: > 100 µM
